FYI, the data here is from paper PMC11283614.

tested on: SARS-CoV-2; assay: Blood cell populations (blood smears) of infected hamsters; format: in vivo, Syrian hamsters; conditions: 7 dpi, therapeutic action
Below: a set of entries, each annotated with reported Blood cells: Band.
measured.property: Blood cells: Band (%)

INSERT INTO measurements (molecule, value_observed) VALUES
  ('Cc1cc(C)n(-c2ccc3nnc(SCC(N)=O)n3n2)n1 [10b]', 27),
  ('CSc1nc(C)cc2nnc(SCCOc3ccccc3)n12', 19),
  ('Cc1cc(C)n(-c2ccc3nnc(C)n3n2)n1', 10.0),
  ('Cc1cc(C)n(-c2ccc3nnc(SCCOc4ccccc4)n3n2)n1 [10d]', 20.7);
